Hey, just so you know, these numbers are from patent US20080139534A1.

The entries below are paired with their reported melting point.

Some compounds with recorded melting point:
O=C(CCCC(=O)Nc1ccc(-c2noc(-c3ccccc3)n2)cc1)Nc1ccc(-c2noc(-c3ccccc3)n2)cc1; 255 to 257 °C
CCCCCC(=O)ONC(=N)c1ccc(NC(=O)CCCC(=O)Nc2ccc(C(=N)NOC(=O)CCCCC)cc2)cc1; 182 to 184 °C
CCCCCc1nc(-c2ccc(NC(=O)CCCC(=O)Nc3ccc(-c4noc(CCCCC)n4)cc3)cc2)no1; 171 to 173 °C

## Input Item under review: CC(=O)O/N=C(\N)c1ccc(NC(=O)CCCC(=O)Nc2ccc(/C(N)=N/OC(C)=O)cc2)cc1 . Reported melting point?
## Output 225 to 228 °C

## Input Item under review: NNC(=O)c1ccc(N2CCN(c3ccc(C(=O)NN)cc3)CC2)cc1 . Reported melting point?
## Output > 300 °C

## Input Item under review: N/C(=N\OC(=O)c1ccccc1)c1ccc(NC(=O)CCCC(=O)Nc2ccc(/C(N)=N/OC(=O)c3ccccc3)cc2)cc1 . Reported melting point?
## Output 253 to 255 °C

## Input Item under review: Cc1nc(-c2ccc(NC(=O)CCCC(=O)Nc3ccc(-c4noc(C)n4)cc3)cc2)no1 . Reported melting point?
## Output 235 to 237 °C

## Input Item under review: C=CCCc1nc(-c2ccc(NC(=O)CCCC(=O)Nc3ccc(-c4noc(CCC=C)n4)cc3)cc2)no1 . Reported melting point?
## Output 168 to 170 °C

----------
The entries below are paired with their reported IC50.
Test system: T. b. rhodesiense KETRI 243
procedure.details: In vitro trypanocidal activity, bloodforms in HMI-18 medium, Coulter counts
Type: cell-based, Trypanosoma brucei rhodesiense
experimental.context: 48 h exposure
Please respond with the number in nM and leave the unit unwritten.

O=C(Nc1ccccc1)C(=O)Nc1ccccc1; 155
CN1CCN(C)C1c1ccc(N2CCN(c3ccc(C4N(C)CCN4C)cc3)CC2)cc1; 2320
N=C(N)c1ccc(NC(=O)CCCCCCC(=O)Nc2ccc(C(=N)N)cc2)cc1; 1.45

Now consider a different molecule.
## Input Item under review: CCCCCCCCCCNC(=N)c1ccc(N2CCN(c3ccc(C(=N)NCCCCCCCCCC)cc3)CC2)cc1.Cl.Cl . Reported IC50?
## Output 220

----------
Tested on: poly(dA-dT)
procedure.details: Thermal denaturation study, DNA binding affinity (ΔTm);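 note: shift in the midpoint temperature of the thermal melting curve of poly(dA-dT), each value the mean of two or more independent determinations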
experimental.context: 1:5 compound to base pair ratio
Criterion: DNA Binding Δ Tm Poly (dA-dT) strictly less than 3 °C. Met: criterion met. Not met: criterion not met.

Consider the following illustrative entries.
CCNC(=N)c1ccc(N2CCN(c3ccc(C(=N)NCC)cc3)CC2)cc1.Cl.Cl; criterion not met
N=C(NO)c1ccc(C(=O)Nc2cccc(NC(=O)c3ccc(C(=N)NO)cc3)c2)cc1; criterion met
N=C(N)c1ccc(OCc2ccccc2COc2ccc(C(=N)N)cc2)cc1; criterion met
Cl.Cl.N=C(NC1CCCCCCC1)c1ccc(N2CCN(c3ccc(C(=N)NC4CCCCCCC4)cc3)CC2)cc1; criterion not met
Cl.Cl.c1cc(N2CCCN(c3ccc(C4=NCCCN4)cc3)CC2)ccc1C1=NCCCN1 [732N]; criterion not met
Cl.Cl.c1cc(N2CCN(c3ccc(C4=NCCCN4)cc3)CC2)ccc1C1=NCCCN1 [632N]; criterion not met
Cl.Cl.c1cc(N2CCN(c3ccc(C4=NCCN4)cc3)CC2)ccc1C1=NCCN1; criterion not met
CCCCCCCCCNC(=N)c1ccc(N2CCN(c3ccc(C(=N)NCCCCCCCCC)cc3)CC2)cc1.Cl.Cl; criterion met

Now examine the next entry.
## Input hey, is DNA Binding Δ Tm Poly (dA-dT) for CCCCCCCCCCCCNC(=N)c1ccc(N2CCN(c3ccc(C(=N)NCCCCCCCCCCCC)cc3)CC2)cc1.Cl.Cl lower than 3 °C or not?
## Output criterion met

----------
The entries below are paired with their reported pIC50.
Tested on: T. b. rhodesiense KETRI 243
procedure.details: In vitro trypanocidal activity, bloodforms in HMI-18 medium, Coulter counts
Format: cell-based, Trypanosoma brucei rhodesiense
experimental.context: Trypanosoma brucei, RHODESIENSE, 48 h exposure
Entry type: numeric. Quantity: pIC50, the -log10 of concentration in molar units.

N/C(=N\O)c1ccc(NC(=O)CCCC(=O)Nc2ccc(/C(N)=N/O)cc2)cc1; 5.00
CCCNC(=N)c1ccc(N2CCN(c3ccc(C(=N)NCCC)cc3)CC2)cc1.Cl.Cl [63N]; 7.49
N=C(N)c1ccc(NC(=O)CCCCC(=O)Nc2ccc(C(=N)N)cc2)cc1; 8.61
c1ccc2[nH]c(-c3ccc(N4CCN(c5ccc(-c6nc7ccccc7[nH]6)cc5)CC4)cc3)nc2c1; 5.24
N=C(N)c1ccc(OCCCCCOc2ccc(C(=N)N)cc2)cc1 [Pentamidine, reference compound]; 8.63

Now consider a different molecule.
## Input Item under review: N=C(NO)c1ccc(N2CCN(c3ccc(C(=N)NO)cc3)CC2)cc1 . Reported pIC50?
## Output 5.72

----------
Test system: T. b. rhodesiense KETRI 243
procedure.details: In vitro trypanocidal activity, bloodforms in HMI-18 medium, Coulter counts
Format: cell-based, Trypanosoma brucei rhodesiense
experimental.context: 48 h exposure
outcome.measure: pIC50
Entry type: numeric. Quantity: pIC50, the -log10 of concentration in molar units.

Some molecules with recorded pIC50:
N=C(N)c1ccc(NC(=O)CCCCCCCCC(=O)Nc2ccc(C(=N)N)cc2)cc1 [compound 0709]; 8.39
CCCCCCNC(=N)c1ccc(N2CCN(c3ccc(C(=N)NCCCCCC)cc3)CC2)cc1.Cl.Cl [compound 0128]; 7.62
Cl.Cl.N=C(NC1CC1)c1ccc(N2CCCN(c3ccc(C(=N)NC4CC4)cc3)CC2)cc1 [73C]; 6.09
CCCCCCCCCCCCNC(=N)c1ccc(N2CCN(c3ccc(C(=N)NCCCCCCCCCCCC)cc3)CC2)cc1.Cl.Cl [compound 0136]; 6.90
Cl.Cl.N=C(NC1CCCCCC1)c1ccc(N2CCN(c3ccc(C(=N)NC4CCCCCC4)cc3)CC2)cc1 [compound 0129]; 7.66

## Input Item under review: CC(C)CCNC(=N)c1ccc(N2CCN(c3ccc(C(=N)NCCC(C)C)cc3)CC2)cc1.Cl.Cl [compound 0135] . Reported pIC50?
## Output 7.21

## Input Item under review: CN=C(N)c1ccc(N2CCN(c3ccc(C(N)=NC)cc3)CC2)cc1 [compound 0112] . Reported pIC50?
## Output 7.48

## Input Item under review: Cl.Cl.c1cc(N2CCN(c3ccc(C4=NCCN4)cc3)CC2)ccc1C1=NCCN1 [compound 0126] . Reported pIC50?
## Output 8.19

----------
Tested on: T. b. brucei Lab 110 EATRO
procedure.details: In vitro trypanocidal activity, bloodforms in HMI-18 medium, Coulter counts
Type: cell-based, Trypanosoma brucei brucei
experimental.context: Trypanosoma brucei; 48 h exposure, bloodforms; read-out: Lab 100 EATRO IC50
pIC50: −log10 of the molar value.
Short version: pIC50 at least 6 is rule met, less is rule not met.

CCCNC(=N)c1ccc(N2CCN(c3ccc(C(=N)NCCC)cc3)CC2)cc1.Cl.Cl [63N]; rule met
N/C(=N\O)c1ccc(NC(=O)CCCC(=O)Nc2ccc(/C(N)=N/O)cc2)cc1; rule not met

Now examine the next entry.
## Input Hi, just wondering whether N=C(N)c1ccc(NC(=O)CCCCC(=O)Nc2ccc(C(=N)N)cc2)cc1 shows pIC50 of 6 or higher.
## Output rule met

----------
Tested on: T. b. brucei Lab 110 EATRO
procedure.details: In vivo efficacy in infected mice
Design: species or system Trypanosoma brucei brucei
experimental.context: mice, 10 mg/kg/day i.p. for 3 days
The entries below are paired with their reported MSD.

Some compounds with recorded MSD:
Cl.Cl.N=C(NC1CCC1)c1ccc(N2CCN(c3ccc(C(=N)NC4CCC4)cc3)CC2)cc1; >30 days
N=C(N)c1ccc(NC(=O)CCCCC(=O)Nc2ccc(C(=N)N)cc2)cc1; >30 days
Cl.Cl.N=C(NC1CCCCCC1)c1ccc(N2CCN(c3ccc(C(=N)NC4CCCCCC4)cc3)CC2)cc1; >30 days

Now consider a different compound.
## Input Item under review: CCNC(=N)c1ccc(N2CCN(c3ccc(C(=N)NCC)cc3)CC2)cc1.Cl.Cl . Reported MSD?
## Output 17 days

----------
Test system: T. b. brucei Lab 110 EATRO
procedure.details: In vitro trypanocidal activity, bloodforms in HMI-18 medium, Coulter counts
Assay type: cell-based, Trypanosoma brucei brucei
experimental.context: Trypanosoma brucei, 48 h, read-out: Lab 100 EATRO IC50
outcome.measure: IC50 (nM)
Please respond with the number in nM and leave the unit unwritten.

## Input Item under review: NNC(=O)c1ccc(N2CCN(c3ccc(C(=O)NN)cc3)CC2)cc1 . Reported IC50?
## Output 240

----------
Test system: T. b. rhodesiense KETRI 243
procedure.details: In vitro trypanocidal activity, bloodforms in HMI-18 medium, Coulter counts
Type: cell-based, Trypanosoma brucei rhodesiense
experimental.context: 48 h exposure
outcome.measure: pIC50
Entry type: numeric. Quantity: pIC50, the -log10 of concentration in molar units.

Some compounds with recorded pIC50:
CCCCNC(=N)c1ccc(N2CCCN(c3ccc(C(=N)NCCCC)cc3)CC2)cc1.Cl.Cl [74N]; 7.10
Cl.Cl.c1cc(C2=NCCN2)ccc1CC1CCCN(c2ccc(C3=NCCN3)cc2)C1 (stereo not shown); 7.07
N#Cc1ccc(NC(=O)C(=O)Nc2ccc(C#N)cc2)cc1; 6.47
N=C(N)c1cccc(NC(=O)CCCCC(=O)Nc2cccc(C(=N)N)c2)c1; 7.68
CCCCCCCNC(=N)c1ccc(N2CCN(c3ccc(C(=N)NCCCCCCC)cc3)CC2)cc1.Cl.Cl; 7.24
N#Cc1ccc(NC(=O)CC(=O)Nc2ccc(C#N)cc2)cc1; 5.80
N#Cc1ccc(N2CCN(c3ccc(C#N)cc3)CC2)cc1; 5.98
N=C(N)c1ccc(NC(=O)CCCCCCCCCCC(=O)Nc2ccc(C(=N)N)cc2)cc1; 8.18
NC(=O)c1ccc(NC(=O)CCCCC(=O)Nc2ccc(C(N)=O)cc2)cc1; 5.96
C(=NNc1ccccc1)c1ccc(N2CCN(c3ccc(C=NNc4ccccc4)cc3)CC2)cc1; 5.73

## Input Item under review: O=C(Nc1ccc(C2=NCCN2)cc1)C1CC1C(=O)Nc1ccc(C2=NCCN2)cc1 (stereo not shown) . Reported pIC50?
## Output 6.36

## Input Item under review: NC(=O)c1cccc(NC(=O)CCCCC(=O)Nc2cccc(C(N)=O)c2)c1 . Reported pIC50?
## Output 5.70

## Input Item under review: Cl.Cl.N=C(N)c1ccc(N2CCCN(c3ccc(C(=N)N)cc3)CC2)cc1 . Reported pIC50?
## Output 8.57

## Input Item under review: N=C(N)c1ccc(NC(=O)CCC(=O)Nc2ccc(C(=N)N)cc2)cc1 . Reported pIC50?
## Output 5.66

## Input Item under review: CC(=O)c1ccc(N2CCN(c3ccc(C(C)=O)cc3)CC2)cc1 . Reported pIC50?
## Output 5.81

## Input Item under review: CCC(C)CNC(=N)c1ccc(N2CCN(c3ccc(C(=N)NCC(C)CC)cc3)CC2)cc1.Cl.Cl (stereo not shown) . Reported pIC50?
## Output 7.41

## Input Item under review: N=C(N)c1ccc(OCc2ccc(COc3ccc(C(=N)N)cc3)cc2)cc1 . Reported pIC50?
## Output 9.18
